From: patent US8409550B2

Tested on: transglutaminase (TGase I)
Experiment: Transglutaminase (Tgase) ELISA assay in cultured keratinocytes with retinol and boosters
Type: cell-based, human
Details: Compound 1 alone; concentration one log below IC20; in the presence of 10^-7M retinol
recorded.endpoint: TG as % C Compd 1 (% C)
Record the value in % C, omitting the unit from your answer.

[
  {
    "molecule": "CC(C)(O)CCCC1=CCC(C=O)CC1 (centres unmarked) [Lyral]",
    "recorded.value": 97
  }
]

Identify measured TG as % C Compd 1 associated with CCCCCCCC(=O)OC[C@H](COP(=O)(O)OCCN)OC(=O)CCCCCCC
81

Indicate its recorded TG as % C Compd 1; the molecule in question is CCCCCCCC/C=C/CCCCCCCC(=O)O [Elaidic Acid]
93

Output measured TG as % C Compd 1 for this item: CCCCCCCCCCCCCC(=O)O [Myristic Acid]
79

Dear colleague, please send me the reported TG as % C Compd 1 for COc1cc(NS(C)(=O)=O)ccc1Nc1c2ccccc2nc2ccccc12 [Amsacrine, reference compound] when you can.
79

###

System: cytochrome P450 dependent retinoic acid oxidation
Test: Assay for NADPH dependent retinoic acid oxidation, rat liver microsomes (to identify B5)
Details: compound 10 μM
recorded.endpoint: % Inhibition Retinoic Acid (10 μM) (%)
Please reply with the bare figure in % and do not write the unit itself.

The cases that follow already have their % Inhibition Retinoic Acid (10 μM) on record.
[
  {
    "molecule": "Clc1ccc(COC(Cn2ccnc2)c2ccc(Cl)cc2Cl)c(Cl)c1 (centres unmarked) [Miconazole, reference compound]",
    "recorded.value": 74
  },
  {
    "molecule": "CC(=O)N1CCN(c2ccc(OCC3COC(Cn4ccnc4)(c4ccc(Cl)cc4Cl)O3)cc2)CC1 (centres unmarked) [Ketoconazole, reference compound]",
    "recorded.value": 84
  },
  {
    "molecule": "O=c1c(O)c(-c2ccc(O)c(O)c2)oc2cc(O)cc(O)c12",
    "recorded.value": 40
  },
  {
    "molecule": "c1ccc(-c2ccc(C(c3ccccc3)n3ccnc3)cc2)cc1 (centres unmarked)",
    "recorded.value": 89
  }
]

Look up and report measured % Inhibition Retinoic Acid (10 μM) for this entry: Clc1ccccc1C(c1ccccc1)(c1ccccc1)n1ccnc1 [Clotrimazole, reference compound]
76

Provide only the value of recorded % Inhibition Retinoic Acid (10 μM) for Clc1ccc(COC(Cn2ccnc2)c2ccc(Cl)cc2Cl)cc1 (centres unmarked)
88

For the molecule CC(C)(C)C(=O)C(Oc1ccc(Cl)cc1)n1ccnc1 (centres unmarked) [Climbazole, reference compound] , report % Inhibition Retinoic Acid (10 μM).
80

Determine its reported % Inhibition Retinoic Acid (10 μM): CCCCCCCC/C=C\CCCCCCCC1=NCCN1CCO [Oleyl Hydroxyethylimidazoline]
54

###

# maps each entry to its TG as % C Compd 2
Test system: transglutaminase (TGase I)
Test: Transglutaminase (Tgase) ELISA assay in cultured keratinocytes with retinol and boosters
Assay type: cell-based, human
Conditions: compound 2 alone, with retinol; concentration one log below IC20

Reference set (4 entries):
[
  {
    "compound": "CC1(C)[C@@H](O)CC[C@]2(C)[C@H]3C(=O)C=C4[C@@H]5C[C@@](C)(C(=O)O)CC[C@]5(C)CC[C@@]4(C)[C@]3(C)CC[C@@H]12 [Glycyrretinic Acid, Glycyrrhetinic Acid]",
    "TG as % C Compd 2": "92 % C"
  },
  {
    "compound": "CCCCCCCCCCCC1=NCCN1CCO [Lauryl Hydroxyethylimidazoline]",
    "TG as % C Compd 2": "73 % C"
  },
  {
    "compound": "O=c1ccc2ccccc2o1 [Coumarin]",
    "TG as % C Compd 2": "96 % C"
  },
  {
    "compound": "CCCCCCCCCCCCCCCC(=O)O [Hexadecanoic acid]",
    "TG as % C Compd 2": "95 % C"
  }
]

We now examine a further compound.
Indicate the recorded TG as % C Compd 2 value for this compound: O=C1CCc2ccccc2N1 [3,4-dihydro-2 quinolinone]
102 % C
